experimental system: recombinant human PDK1 (Homo sapiens)
Construct: containing amino acids 51-556 of the human PDK1 enzyme
Sequence (O15530 51-556): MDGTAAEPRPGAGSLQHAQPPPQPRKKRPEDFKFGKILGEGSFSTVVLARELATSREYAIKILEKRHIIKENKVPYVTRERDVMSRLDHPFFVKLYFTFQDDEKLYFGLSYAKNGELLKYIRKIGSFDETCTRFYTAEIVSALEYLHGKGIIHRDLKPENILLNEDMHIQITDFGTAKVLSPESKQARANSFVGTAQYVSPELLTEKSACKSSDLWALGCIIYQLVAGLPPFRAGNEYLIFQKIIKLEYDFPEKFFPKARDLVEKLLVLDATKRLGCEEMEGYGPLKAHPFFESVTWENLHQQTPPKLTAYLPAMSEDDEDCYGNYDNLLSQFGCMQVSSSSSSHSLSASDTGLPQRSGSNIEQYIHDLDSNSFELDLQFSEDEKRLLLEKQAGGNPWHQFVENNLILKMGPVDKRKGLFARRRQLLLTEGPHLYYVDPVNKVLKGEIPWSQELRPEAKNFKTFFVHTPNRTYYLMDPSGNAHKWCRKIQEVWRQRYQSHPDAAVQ
assay remarks: PDK1 IMAP fluorescence polarization kinase assay
measurement setup: 10 nM PDK1, 100 nM peptide substrate, 100 nM PIFtide, 2.5 uM ATP, 1.5 hours
Where a name gives a salt, the structure may show the parent alone.
property: log10(IC50) (log10 of the value in nM)
Each number you see is log10 of IC50, and the unit inside the log is nM.

Req: Which log10(IC50) is listed for "Cc1cc(-c2nc(C(=O)Nc3cc4[nH]ncc4cc3-c3ccc4c(c3)CNC4)cs2)[nH]n1" ?
Resp: 1.93

Req: Try the molecule O=C(Nc1cc2[nH]ncc2cc1-c1cccc(CN2CCCCC2)c1)c1csc(-c2cc(C(F)(F)F)n[nH]2)n1 [Compound 3-5, hydrochloride]
Resp: 2.23

Req: Again, but for "O=C(Nc1cc2[nH]ncc2cc1-c1cccc(CN2CCCC2)c1)c1csc(-c2cc(C(F)(F)F)n[nH]2)n1"
Resp: 1.52

Req: Follow-up entry: "NC1(c2ccc(-c3cc4cn[nH]c4cc3NC(=O)c3csc(-c4cc(C(F)(F)F)n[nH]4)n3)cc2)CC1"
Resp: 3.27

Req: Quick one: "Cc1cc(CN)ccc1-c1cc2cn[nH]c2cc1NC(=O)c1csc(-c2cc(C(F)(F)F)n[nH]2)n1"
Resp: 2.03

Reference source: patent US20130053382A1
